Data provenance is PubChem BioAssay AID493091.

Property: inhibition; scope: individual compounds
system: Carboxy-terminal domain RNA polymerase II polypeptide A small phosphatase 1 (Homo sapiens) (UniProt Q9GZU7)
Sequence (Q9GZU7 76-261 limits assumed): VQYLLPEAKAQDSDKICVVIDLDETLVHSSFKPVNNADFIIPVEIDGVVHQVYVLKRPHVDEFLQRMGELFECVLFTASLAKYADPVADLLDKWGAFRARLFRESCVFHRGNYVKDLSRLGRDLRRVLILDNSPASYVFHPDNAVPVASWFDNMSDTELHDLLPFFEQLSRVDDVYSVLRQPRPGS
experiment: Scp-1 phosphatase inhibitors, primary screen, biochemical, colorimetric, uHTS (AID 493091);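 further: plate controls were DMSO wells with enzyme for no effect and wells lacking enzyme for full effect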
setupConditions: Recombinant Scp1, phosphopeptide, malachite green phosphate absorbance; at 20 µM; stronger effect = higher value
The whole screen tested about 340,000 compounds, of which about 3,000 (0.88%) were called active. The sample holds actives, similar compounds and a random draw of the others, so the mix is not that of the screen.

query: Quick one: inhibition of CC1CC(C)CN(C/C=C/c2ccccc2[N+](=O)[O-])C1 (configuration not stated) ?
result: -6.48% (inactive)

query: Quick one: inhibition of CCCCSc1nnc(-c2ccc(C)cc2)o1 ?
result: 81.5% (active)

query: Quick one: inhibition of O=C(NN1C(=O)C2C3C=CC(O3)C2C1=O)c1ccncc1 (configuration not stated) ?
result: 0.55% (inactive)

***
query: Quick one: inhibition of COc1ccccc1OCCOc1ccc(/C=C2\C(=N)N3N=C(C)SC3=NC2=O)cc1 ?
result: -7.04% (inactive)

query: Quick one: inhibition of N#Cc1ccccc1CN1C(=O)S/C(=C/c2cccn2-c2cccc(C(=O)O)c2)C1=O ?
result: 70.5% (active)

query: Quick one: inhibition of NC(=O)CCN1CCN(S(=O)(=O)/C=C/c2ccccc2)CC1 ?
result: 5.89% (inactive)

query: Quick one: inhibition of CS(=O)(=O)C1=NN2C(=N)/C(=C\c3ccc(OCCOc4ccccc4)cc3)C(=O)N=C2S1 ?
result: 50.3% (active)

query: Quick one: inhibition of CCCOc1ccc(C(=O)C(CCC(CNCC)C(=O)c2ccc(OCCC)cc2)CNCC)cc1 (configuration not stated) ?
result: 10.4% (inactive)

query: Quick one: inhibition of CCOc1ccc(OCC)c(NC(=O)CN(C)S(=O)(=O)c2cccc3nsnc23)c1 ?
result: -5.95% (inactive)

query: Quick one: inhibition of COc1ccc(NS(=O)(=O)c2ccc(N3CCN(CCO)CC3)c([N+](=O)[O-])c2)cc1 ?
result: -2.43% (inactive)

query: Quick one: inhibition of Cc1onc(-c2c(F)cccc2Cl)c1C(=O)Nc1cccc(S(=O)(=O)N2CCCCC2)c1 ?
result: -7.5% (inactive)

query: Quick one: inhibition of Cc1c(Cl)c([N+](=O)[O-])nn1CCCC(=O)NC(C)c1ccccc1 (configuration not stated) ?
result: -27.1% (inactive)

query: Quick one: inhibition of C#CCOCCOCCOCCNc1nc(N2CCN(C(=O)Cn3cc(CCO)nn3)CC2)nc(N2CCN(C(=O)Cn3cc(CCCN=C(N)N)nn3)CC2)n1 ?
result: 4.14% (inactive)

query: Quick one: inhibition of COc1ccc2c(C)c(CCC(=O)NC3CC3)c(=O)oc2c1C ?
result: -1.31% (inactive)

query: Quick one: inhibition of CC(C)c1ccc(C(=O)NCCCc2ccccc2)cc1 ?
result: -14.7% (inactive)

query: Quick one: inhibition of CC1CCN(c2ccc(S(=O)(=O)Nc3cc(C(=O)O)cc(C(=O)O)c3)cc2[N+](=O)[O-])CC1 ?
result: 54.5% (active)

query: Quick one: inhibition of Cc1ccc(-c2nnc(CN3CCN(C)CC3)o2)cc1 ?
result: -6% (inactive)

query: Quick one: inhibition of O=C(CN1CCN(c2ccc(Cl)cc2)CC1)NCc1cccs1 ?
result: 3.78% (inactive)

query: Quick one: inhibition of CCOc1ccc(NC(=O)C2CC(=O)N=C(N)S2)cc1 (configuration not stated) ?
result: -10.8% (inactive)
